Values compiled from patent US7217722B2.

Here the recorded inhibition in vivo at 30 mg/kg is given for each entry.
- Test system: spontaneously hypertensive male rats (SHR)
- Assay Text: Antihypertensive activity in spontaneously hypertensive rats
- Format: in vivo
- Condition Label: Rattus norvegicus, po, 30 mg/kg oral, systolic pressure 3 to 4 hr after administration, mean ± SEM of 3 to 4 SHRs, read-out: Blood pressure depression, %

{"Compound": "c1cc2[nH]ncc2cc1N[C@H]1CC[C@@H](NC2CC2)CC1 [Example 247 (syn)]", "Target Or System": "spontaneously hypertensive male rats (SHR)", "inhibition in vivo at 30 mg/kg, %": 43.3}
{"Compound": "CCCN1CCC(Nc2cccc3cnccc23)CC1", "Target Or System": "spontaneously hypertensive male rats (SHR)", "inhibition in vivo at 30 mg/kg, %": 22.7}
{"Compound": "FCCN[C@H]1CC[C@@H](Nc2ccc3[nH]ncc3c2)CC1 [Example 246 (syn)]", "Target Or System": "spontaneously hypertensive male rats (SHR)", "inhibition in vivo at 30 mg/kg, %": 37.2}
{"Compound": "FCCCN1CCC(Nc2ccc3[nH]ncc3c2)CC1", "Target Or System": "spontaneously hypertensive male rats (SHR)", "inhibition in vivo at 30 mg/kg, %": 30.8}
{"Compound": "c1ccc(CN2CCCC(Nc3ccc4[nH]ncc4c3)C2)cc1 (centres unmarked)", "Target Or System": "spontaneously hypertensive male rats (SHR)", "inhibition in vivo at 30 mg/kg, %": 37}

---

Each entry below lists one item and its recorded IC50 value.
- Target Or System: Rho kinase (fused protein of bovine Rho kinase catalyst region and glutathione S-transferase) (Bos taurus, UniProt Q28021)
- Sequence (Q28021 92-354 limits assumed): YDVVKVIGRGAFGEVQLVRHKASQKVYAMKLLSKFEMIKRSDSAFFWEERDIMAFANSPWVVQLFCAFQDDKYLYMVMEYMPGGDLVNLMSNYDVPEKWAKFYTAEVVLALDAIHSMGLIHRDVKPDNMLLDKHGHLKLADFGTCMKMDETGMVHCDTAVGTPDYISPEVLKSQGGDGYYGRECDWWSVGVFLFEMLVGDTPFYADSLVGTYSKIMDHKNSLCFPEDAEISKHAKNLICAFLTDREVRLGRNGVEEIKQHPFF
Attribute Measured: IC50 (nM)

{"Compound": "O=C(NCc1c(F)ccc(F)c1F)Nc1ccc2c(c1)C(=O)NC2=O", "Attribute Measured": "IC50", "Result Units": "nM", "Measurement": 161}
{"Compound": "c1ccc(CN2CCCC(Nc3ccc4[nH]ncc4c3)C2)cc1 (stereo not shown)", "Attribute Measured": "IC50", "Result Units": "nM", "Measurement": 20}
{"Compound": "Nc1cccc(NC(=O)Nc2ccc3c(c2)C(=O)NC3=O)c1", "Attribute Measured": "IC50", "Result Units": "nM", "Measurement": 8570}
{"Compound": "O=C(NCc1ccccc1)Nc1ccncc1", "Attribute Measured": "IC50", "Result Units": "nM", "Measurement": 10200}
{"Compound": "O=C(NCc1ccccc1Cl)Nc1ccncc1", "Attribute Measured": "IC50", "Result Units": "nM", "Measurement": 7200}
{"Compound": "COc1cc(CN2CCCC(Nc3ccc4[nH]ncc4c3)C2)cc(OC)c1 (stereo not shown)", "Attribute Measured": "IC50", "Result Units": "nM", "Measurement": 80}
{"Compound": "Cc1ccc(CN2CCC(Nc3ccc4[nH]ncc4c3)CC2)cc1C", "Attribute Measured": "IC50", "Result Units": "nM", "Measurement": 372}
{"Compound": "O=[N+]([O-])c1ccc(CN2CCCC(Nc3ccc4[nH]ncc4c3)C2)cc1 (stereo not shown)", "Attribute Measured": "IC50", "Result Units": "nM", "Measurement": 87}
{"Compound": "Cc1ccc(CN2CCC(Nc3ccc4[nH]ncc4c3)C2)cc1 (stereo not shown)", "Attribute Measured": "IC50", "Result Units": "nM", "Measurement": 22}
{"Compound": "Oc1ccc(CN2CCC(Nc3ccc4[nH]ncc4c3)CC2)cc1", "Attribute Measured": "IC50", "Result Units": "nM", "Measurement": 290}
{"Compound": "O=C(NCc1ccc(Cl)cc1Cl)Nc1ccc2c(c1)C(=O)NC2=O", "Attribute Measured": "IC50", "Result Units": "nM", "Measurement": 440}
{"Compound": "c1ccc2cc(CN3CCC(Nc4ccc5[nH]ncc5c4)CC3)ccc2c1", "Attribute Measured": "IC50", "Result Units": "nM", "Measurement": 136}
{"Compound": "CCC(=O)c1cc(F)c(OCC(=O)Nc2ccncc2)c(F)c1", "Attribute Measured": "IC50", "Result Units": "nM", "Measurement": 8590}
{"Compound": "CCCNC(=O)Nc1ccc2c(c1)C(=O)NC2=O", "Attribute Measured": "IC50", "Result Units": "nM", "Measurement": 8300}
{"Compound": "O=C(CNCc1ccccc1)Nc1ccc2[nH]ncc2c1", "Attribute Measured": "IC50", "Result Units": "nM", "Measurement": 446}
{"Compound": "O=C(Nc1ccccc1)Nc1ccc2c(c1)C(=O)NC2=O", "Attribute Measured": "IC50", "Result Units": "nM", "Measurement": 900}
{"Compound": "NC(=O)c1ccc(NC(=O)Nc2c(Cl)cccc2Cl)cc1", "Attribute Measured": "IC50", "Result Units": "nM", "Measurement": 9000}
{"Compound": "Clc1ccccc1CN1CCC(Nc2ccc3[nH]ncc3c2)CC1", "Attribute Measured": "IC50", "Result Units": "nM", "Measurement": 436}
{"Compound": "COc1ccc(CN2CCC(Nc3ccc4[nH]ncc4c3)CC2)cc1", "Attribute Measured": "IC50", "Result Units": "nM", "Measurement": 355}
